Test: Biodistribution in BALB/c nu/nu mice bearing PC-3 xenografts
Assay type: in vivo
Conditions: female, BALB/c nu/nu, mouse, muscle, iv, total radioactivity; Blockade (co-injection of NOTA-PEG2-RM26), 2 h; read-out: Radionuclide concentration, Muscle
Starred links: 1 amine or outer side, 2 acyl side, 3 side chain; linkers in the order of their positions; H or OH if unused. Non-standard residues stand in square brackets, D forms with d. Residues, ends and D or L forms follow the SMILES beside them. *: point of attachment. NOTA = O=C(O)CN1CCN(CC(=O)O)CCN(CC(=O)*)CC1; Sta = CC(C)C[C@H](N)[C@@H](O)CC(=O)O; X2 = O=C(COc1cccc(CN[*:1])c1)[*:2]; X1 = O=C(Cc1ccccc1CCN[*:1])[*:2]; X3 = O=C(COc1ccccc1CN[*:1])[*:2]
Outcome Measure: tissue uptake at 2 h (%ID/g)

{"Molecule": "CC(=O)N[C@@H](CCCCNC(=O)CN1CCN(CC(=O)O)CCN(CC(=O)O)CC1)C(=O)NCCc1ccccc1CC(=O)N[C@H](Cc1ccccc1)C(=O)N[C@@H](CCC(N)=O)C(=O)N[C@@H](Cc1c[nH]c2ccccc12)C(=O)N[C@@H](C)C(=O)N[C@H](C(=O)NCC(=O)N[C@@H](Cc1c[nH]cn1)C(=O)N[C@@H](CC(C)C)[C@@H](O)CC(=O)N[C@@H](CC(C)C)C(N)=O)C(C)C [[^68Ga]Ga-NOTA-oET-RM26, metal not drawn] (Ac-K(NOTA)[X1][dF]QWAVGH[Sta]L-NH2)", "Outcome Measure": "tissue uptake at 2 h", "Experimental Result": 0.15}
{"Molecule": "CC(=O)N[C@@H](CCCCNC(=O)CN1CCN(CC(=O)O)CCN(CC(=O)O)CC1)C(=O)NCc1cccc(OCC(=O)N[C@H](Cc2ccccc2)C(=O)N[C@@H](CCC(N)=O)C(=O)N[C@@H](Cc2c[nH]c3ccccc23)C(=O)N[C@@H](C)C(=O)N[C@H](C(=O)NCC(=O)N[C@@H](Cc2c[nH]cn2)C(=O)N[C@@H](CC(C)C)[C@@H](O)CC(=O)N[C@@H](CC(C)C)C(N)=O)C(C)C)c1 [[^68Ga]Ga-NOTA-mMA-RM26, metal not drawn] (Ac-K(NOTA)[X2][dF]QWAVGH[Sta]L-NH2)", "Outcome Measure": "tissue uptake at 2 h", "Experimental Result": 0.12}
{"Molecule": "CC(=O)N[C@@H](CCCCNC(=O)CN1CCN(CC(=O)O)CCN(CC(=O)O)CC1)C(=O)NCc1ccccc1OCC(=O)N[C@H](Cc1ccccc1)C(=O)N[C@@H](CCC(N)=O)C(=O)N[C@@H](Cc1c[nH]c2ccccc12)C(=O)N[C@@H](C)C(=O)N[C@H](C(=O)NCC(=O)N[C@@H](Cc1c[nH]cn1)C(=O)N[C@@H](CC(C)C)[C@@H](O)CC(=O)N[C@@H](CC(C)C)C(N)=O)C(C)C [[^68Ga]Ga-NOTA-oMA-RM26, metal not drawn] (Ac-K(NOTA)[X3][dF]QWAVGH[Sta]L-NH2)", "Outcome Measure": "tissue uptake at 2 h", "Experimental Result": 0.21}

* * *

Experiment: Biodistribution in BALB/c nu/nu mice bearing PC-3 xenografts
Assay type: in vivo
Conditions: female, BALB/c nu/nu, mouse, stomach, iv, 50 pmol, total radioactivity; 2 h p.i., i.v.; read-out: Radionuclide concentration, Stomach
Starred links: 1 amine or outer side, 2 acyl side, 3 side chain; linkers in the order of their positions; H or OH if unused. Non-standard residues stand in square brackets, D forms with d. Residues, ends and D or L forms follow the SMILES beside them. *: point of attachment. NOTA = O=C(O)CN1CCN(CC(=O)O)CCN(CC(=O)*)CC1; Sta = CC(C)C[C@H](N)[C@@H](O)CC(=O)O; X2 = O=C(COc1cccc(CN[*:1])c1)[*:2]; X1 = O=C(Cc1ccccc1CCN[*:1])[*:2]; X3 = O=C(COc1ccccc1CN[*:1])[*:2]

{"Compound": "CC(=O)N[C@@H](CCCCNC(=O)CN1CCN(CC(=O)O)CCN(CC(=O)O)CC1)C(=O)NCc1ccccc1OCC(=O)N[C@H](Cc1ccccc1)C(=O)N[C@@H](CCC(N)=O)C(=O)N[C@@H](Cc1c[nH]c2ccccc12)C(=O)N[C@@H](C)C(=O)N[C@H](C(=O)NCC(=O)N[C@@H](Cc1c[nH]cn1)C(=O)N[C@@H](CC(C)C)[C@@H](O)CC(=O)N[C@@H](CC(C)C)C(N)=O)C(C)C [[^68Ga]Ga-NOTA-oMA-RM26, metal not drawn] (Ac-K(NOTA)[X3][dF]QWAVGH[Sta]L-NH2)", "tissue uptake at 2 h / %ID/g": 3.5}
{"Compound": "CC(=O)N[C@@H](CCCCNC(=O)CN1CCN(CC(=O)O)CCN(CC(=O)O)CC1)C(=O)NCc1cccc(OCC(=O)N[C@H](Cc2ccccc2)C(=O)N[C@@H](CCC(N)=O)C(=O)N[C@@H](Cc2c[nH]c3ccccc23)C(=O)N[C@@H](C)C(=O)N[C@H](C(=O)NCC(=O)N[C@@H](Cc2c[nH]cn2)C(=O)N[C@@H](CC(C)C)[C@@H](O)CC(=O)N[C@@H](CC(C)C)C(N)=O)C(C)C)c1 [[^68Ga]Ga-NOTA-mMA-RM26, metal not drawn] (Ac-K(NOTA)[X2][dF]QWAVGH[Sta]L-NH2)", "tissue uptake at 2 h / %ID/g": 2.5}
{"Compound": "CC(=O)N[C@@H](CCCCNC(=O)CN1CCN(CC(=O)O)CCN(CC(=O)O)CC1)C(=O)NCCc1ccccc1CC(=O)N[C@H](Cc1ccccc1)C(=O)N[C@@H](CCC(N)=O)C(=O)N[C@@H](Cc1c[nH]c2ccccc12)C(=O)N[C@@H](C)C(=O)N[C@H](C(=O)NCC(=O)N[C@@H](Cc1c[nH]cn1)C(=O)N[C@@H](CC(C)C)[C@@H](O)CC(=O)N[C@@H](CC(C)C)C(N)=O)C(C)C [[^68Ga]Ga-NOTA-oET-RM26, metal not drawn] (Ac-K(NOTA)[X1][dF]QWAVGH[Sta]L-NH2)", "tissue uptake at 2 h / %ID/g": 2.6}

Values were extracted from paper PMC12332157.
